- CONDITION_DETAILS: summary of Table 1
MEASURE: Stabilization of chlorine dioxide by the excipient (in words)

>>> df
                                   compound  endpoint_result
0   CC(=O)C(=O)[O-].[Na+] [Sodium Pyruvate]      ineffective
1  O=C([O-])C(=O)[O-].[Na+].[Na+] [Sodium Oxalate]      ineffective

---

- CONDITION_DETAILS: ingredient added at ppm shown (100) to brimonidine composition; 7 days
I'd be grateful if you could share measured Stabilized Chlorine Dioxide Concentration, 7 Days for these entries.
Field: numeric (ppm). Do not append units.

Consider O=C([O-])/C(O)=C(\O)C(=O)[O-].[Na+].[Na+] [Sodium Dihydroxyfurmarate] . Its measured Stabilized Chlorine Dioxide Concentration, 7 Days is 13

Summary for this compound, `O=C(O)CN(CCN(CC(=O)O)CC(=O)O)CC(=O)O` : Stabilized Chlorine Dioxide Concentration, 7 Days is 2

Measured Stabilized Chlorine Dioxide Concentration, 7 Days, O=C[O-].[Na+] [Sodium Formate] : 40

Given item CC(O)C(=O)[O-].[Na+] (centres unmarked) [Sodium Lactate] , the value recorded as its Stabilized Chlorine Dioxide Concentration, 7 Days is 40

Record summary for O=C([O-])C(=O)[O-].[Na+].[Na+] [Sodium Oxalate] : reported Stabilized Chlorine Dioxide Concentration, 7 Days = 38
